Recorded Ki for compounds tested on the protein given by its sequence, drawn from a number of studies.
Target sequence: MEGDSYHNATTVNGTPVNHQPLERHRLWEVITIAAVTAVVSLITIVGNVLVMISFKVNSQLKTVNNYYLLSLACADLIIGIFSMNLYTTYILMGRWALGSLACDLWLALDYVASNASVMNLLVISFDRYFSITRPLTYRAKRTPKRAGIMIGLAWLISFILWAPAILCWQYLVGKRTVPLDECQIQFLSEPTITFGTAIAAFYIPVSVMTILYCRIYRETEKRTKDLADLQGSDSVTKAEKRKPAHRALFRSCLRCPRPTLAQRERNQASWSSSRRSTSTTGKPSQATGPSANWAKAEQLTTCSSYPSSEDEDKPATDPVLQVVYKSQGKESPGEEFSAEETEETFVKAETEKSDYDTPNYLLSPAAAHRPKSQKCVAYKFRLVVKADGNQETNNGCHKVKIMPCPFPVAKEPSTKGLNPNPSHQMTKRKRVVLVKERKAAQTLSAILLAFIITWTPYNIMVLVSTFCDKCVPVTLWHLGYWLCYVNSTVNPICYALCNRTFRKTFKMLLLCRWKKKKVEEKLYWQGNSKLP

Check out these entries, answers already filled in.
COc1ccc(NC(=O)N2CCN(c3ccc(C(F)(F)F)cc3)CC2)cc1N1CCN(C)CC1	> 10 µM
O=C(NCCC1CCNCC1)[C@H]1CCCN1C(=O)[C@@H]1C[C@@H](O)CN1C(=O)CC(c1ccccc1)(c1ccccc1)c1ccccc1	> 5.1 µM

Consider the additional compound presented here.
Query: Consider the compound CN1CCc2c(c3cccc4c3n2Cc2ccccc2C4)C1 . State its measured Ki.
Response: > 10 µM
